System: NCI-H1299
Protocol text: Cytotoxicity against human NCI-H1299 cells assessed as inhibition of cell proliferation measured after 48 hrs by MTT assay
Format: functional, cell-based
Run parameters: NCI-H1299, 48 h
Quantity measured: IC50 (nM)
Number in nM, nothing else.

Answered cases to consult:
CCCCCCCC(=O)O[C@@H]1[C@@]2(C(C)C)O[C@H]2[C@@H]2O[C@]23[C@]12O[C@H]2C[C@H]1C2=C(CC[C@@]13C)C(=O)OC2	194
CC(C)[C@]12O[C@H]1[C@@H]1O[C@]13[C@]1(O[C@H]1C[C@H]1C4=C(CC[C@@]13C)C(=O)OC4)[C@@H]2OC(=O)CCCCCCCCCCBr	557
CC(C)[C@]12O[C@H]1[C@@H]1O[C@]13[C@]1(O[C@H]1C[C@H]1C4=C(CC[C@@]13C)C(=O)OC4)[C@@H]2OC(=O)CCCCC[P+](c1ccccc1)(c1ccccc1)c1ccccc1.[Br-]	254

What value of IC50 has been recorded for this entry: CC(C)[C@]12O[C@H]1[C@@H]1O[C@]13[C@]1(O[C@H]1C[C@H]1C4=C(CC[C@@]13C)C(=O)OC4)[C@@H]2OC(=O)CCCCCCCCCC[P+](c1ccccc1)(c1ccccc1)c1ccccc1
381

Now this one: CC(C)[C@]12O[C@H]1[C@@H]1O[C@]13[C@]1(O[C@H]1C[C@H]1C4=C(CC[C@@]13C)C(=O)OC4)[C@@H]2O [TRIPTOLIDE]
49

* * *

Tested on: NCI-H1299
Protocol text: Cytotoxicity against human NCI-H1299 cells assessed as inhibition of cell proliferation measured after 48 hrs by MTT assay
Assay type: functional, cell-based
Run parameters: NCI-H1299, 48 h
API: label(entry) gives Met if the entry's IC50 is strictly smaller than 0.2 µM; on equality or larger values it gives Not met.

CC(C)[C@]12O[C@H]1[C@@H]1O[C@]13[C@]1(O[C@H]1C[C@H]1C4=C(CC[C@@]13C)C(=O)OC4)[C@@H]2OC(=O)CCCCCCCBr	Met
CCCCC(=O)O[C@@H]1[C@@]2(C(C)C)O[C@H]2[C@@H]2O[C@]23[C@]12O[C@H]2C[C@H]1C2=C(CC[C@@]13C)C(=O)OC2	Not met
CC(C)[C@]12O[C@H]1[C@@H]1O[C@]13[C@]1(O[C@H]1C[C@H]1C4=C(CC[C@@]13C)C(=O)OC4)[C@@H]2OC(=O)CCCCCCBr	Met
CCCCCC(=O)O[C@@H]1[C@@]2(C(C)C)O[C@H]2[C@@H]2O[C@]23[C@]12O[C@H]2C[C@H]1C2=C(CC[C@@]13C)C(=O)OC2	Not met

Is 0.2 µM strictly greater than the compound's reported IC50? compound: CC(C)[C@]12O[C@H]1[C@@H]1O[C@]13[C@]1(O[C@H]1C[C@H]1C4=C(CC[C@@]13C)C(=O)OC4)[C@@H]2OC(=O)CCCCCC[P+](c1ccccc1)(c1ccccc1)c1ccccc1
Not met

* * *

Protocol text: Cytotoxicity against human HBE cells assessed as inhibition of cell proliferation measured after 48 hrs by MTT assay
Type: cell-based
Quantity measured: IC50 (nM)
Field format: number, assumed nM, no unit text.

CCCCCCC(=O)O[C@@H]1[C@@]2(C(C)C)O[C@H]2[C@@H]2O[C@]23[C@]12O[C@H]2C[C@H]1C2=C(CC[C@@]13C)C(=O)OC2	119
CCCCC(=O)O[C@@H]1[C@@]2(C(C)C)O[C@H]2[C@@H]2O[C@]23[C@]12O[C@H]2C[C@H]1C2=C(CC[C@@]13C)C(=O)OC2	327
CC(C)[C@]12O[C@H]1[C@@H]1O[C@]13[C@]1(O[C@H]1C[C@H]1C4=C(CC[C@@]13C)C(=O)OC4)[C@@H]2OC(=O)CCCCCCCCCC[P+](c1ccccc1)(c1ccccc1)c1ccccc1	212
COc1cccc2c1C(=O)c1c(O)c3c(c(O)c1C2=O)C[C@@](O)(C(=O)CO)C[C@@H]3O[C@H]1C[C@H](N)[C@H](O)[C@H](C)O1 [DOXORUBICIN]	1260
CC(C)[C@]12O[C@H]1[C@@H]1O[C@]13[C@]1(O[C@H]1C[C@H]1C4=C(CC[C@@]13C)C(=O)OC4)[C@@H]2OC(=O)CCCC[P+](c1ccccc1)(c1ccccc1)c1ccccc1.[Br-]	6270

I would be grateful if you could share the reported IC50 for CCCCCC(=O)O[C@@H]1[C@@]2(C(C)C)O[C@H]2[C@@H]2O[C@]23[C@]12O[C@H]2C[C@H]1C2=C(CC[C@@]13C)C(=O)OC2 .
101

Moving on to the next molecule: CC(C)[C@]12O[C@H]1[C@@H]1O[C@]13[C@]1(O[C@H]1C[C@H]1C4=C(CC[C@@]13C)C(=O)OC4)[C@@H]2OC(=O)CCCCC[P+](c1ccccc1)(c1ccccc1)c1ccccc1.[Br-]
210

What would you report for CC(C)[C@]12O[C@H]1[C@@H]1O[C@]13[C@]1(O[C@H]1C[C@H]1C4=C(CC[C@@]13C)C(=O)OC4)[C@@H]2OC(=O)CCCCCCCCCCBr ?
479

Entry to check: CC(C)[C@]12O[C@H]1[C@@H]1O[C@]13[C@]1(O[C@H]1C[C@H]1C4=C(CC[C@@]13C)C(=O)OC4)[C@@H]2OC(=O)CCCCCBr
170

Can you check CC(C)[C@]12O[C@H]1[C@@H]1O[C@]13[C@]1(O[C@H]1C[C@H]1C4=C(CC[C@@]13C)C(=O)OC4)[C@@H]2OC(=O)CCCCBr next?
266

Record: CC(C)[C@]12O[C@H]1[C@@H]1O[C@]13[C@]1(O[C@H]1C[C@H]1C4=C(CC[C@@]13C)C(=O)OC4)[C@@H]2O [TRIPTOLIDE]
30

And what about the molecule CC(C)[C@]12O[C@H]1[C@@H]1O[C@]13[C@]1(O[C@H]1C[C@H]1C4=C(CC[C@@]13C)C(=O)OC4)[C@@H]2OC(=O)CCCCCC[P+](c1ccccc1)(c1ccccc1)c1ccccc1 ?
136
